- method: protein stability index of a GFP-peptide fusion (yeast GPS) (PSI 1-4); higher = more stable; sorted into four equal gates, so the index is relative within each strain
- condition.label: san1∆
measurement.name: protein stability index
Could you respond with only the numeric value?

Q: Please indicate protein stability index recorded for KPVKVALIFIFFAYFIG [YJL039C/NUP192]
Result: 1.38

Q: Please indicate protein stability index recorded for DEEASYKLGKVKKVQLG [RPS4A]
Result: 2.9

Q: Please report the measured protein stability index for REAYIENFAKGEHISAI [SWP82]
Result: 2.99

Q: Provide one value: measured protein stability index of APTRELVQQIQKETQKV [PRP28]
Result: 2.95

Q: Output protein stability index of VKDWLYDSRPLEEDSKK [PRP8]
Result: 2.8

Q: Give me measured protein stability index, please, for this sequence: FPTRLGQGYRKVGIWPY [YJL039C/NUP192]
Result: 2.96

Q: Please look at this sequence and report its protein stability index: FGGSQPNSGTATTGGFG [YGR119C/NUP57]
Result: 3.15

Q: For KLNVVGWFHSHPGYDCW [RRI1] , write its protein stability index.
Result: 2.61

Q: In one line, give reported protein stability index of the entry EHRRYDDQLKQRRQNIR [RPT4] .
Result: 2.29

Q: Recall and state the measured protein stability index for WTVLFRKHHKKGITEEV [RPL24A] .
Result: 1.82

Q: Give a short answer stating reported protein stability index for NFKMLVLLATWNLEKWR [IRR1] .
Result: 1.5

Q: Give protein stability index for TCPGLSLTDVAFFTYDA [ECM29]
Result: 2.78

Q: Could you please provide reported protein stability index for LVVLTDVVERLHKNFES [RGR1] ? Thanks!
Result: 2.61

Q: Find the measured protein stability index of TNVSKQNDFLFSVGESL [ECM29] and report it.
Result: 2.94

---

- method: protein stability index of a GFP-peptide fusion (yeast GPS) (PSI 1-4); higher = more stable; sorted into four equal gates, so the index is relative within each strain
- condition.label: ubr1∆
Give measured protein stability index for each item. Keep answers brief.
Reply: number alone, nothing else.

Q: Given the sequence RVSLQDIKDFADKVYTK [QCR2] , write its reported protein stability index.
Result: 2.67

Q: Look up protein stability index of QGSVTVGLRSNTHAVLV [PRE5] and report it.
Result: 1.29

Q: Quick one: give measured protein stability index for SSTDEESWFKALAGSEI [FAS1]
Result: 3.3

Q: For the sequence EISTSKKNNLEFGTYGK [RPN14] , give its reported protein stability index.
Result: 2.04

Q: Give protein stability index for the following sequence: YLKHNSIAEEIPIAIVL [RET1]
Result: 2.16

Q: Determine its reported protein stability index: TKTPGPGGQAALRALAR [RPS14A]
Result: 2.3

Q: Dear colleague, please send me the reported protein stability index for DDYILSGESVMDRDSES [SRB4] when you can.
Result: 3.21

Q: Given VTQQKRSLDENRLEIKY [SMC1] , respond with its protein stability index.
Result: 2.08

Q: Please report the measured protein stability index for DSLKLNSKPVELKPVSL [YJL041W/NSP1]
Result: 2.63

Q: Specify measured protein stability index for HGAASFLKERLMEASDA [RPB2] .
Result: 1.03

Q: Read off the recorded protein stability index for ALNKISKYYPGVIIKVE [SNU114]
Result: 2.33

Q: Look up protein stability index of DQCKKQRRCLHCGALNG [RPO31] and report it.
Result: 2.57

Q: Return value of protein stability index for input FIRLPHWPLNWYLILSI [RGR1] , no commentary.
Result: 1.37

Q: State its protein stability index: NLQTADTVIIFDTDWNP [SNF2]
Result: 2.34
